Here the recorded cell viability is given for each entry.
System: HCT116
Test: cell viability (CellTiter-Glo) relative to plate median (fraction of plate median); higher = more viable cells
Measurement setup: 5 µM; treatment time 24 h; reporter: TCF4/Wnt
Output spec: single numeric token, no unit.

Examples with their reported cell viability follow.
CC(=O)O[C@H]1C[C@@H](OC(C)=O)C(C)(C)C2C[C@@H](OC(C)=O)[C@]3(C)C(CC[C@@]4(C)[C@H](c5ccoc5)C(=O)[C@H]5O[C@]543)[C@]21C (stereo not given in full) :: 1.06
CCCCCCCCCc1ccc(O)cc1 :: 0.999
COc1ccc2c(c1)[nH]c1c(C)nccc12 :: 0.904

// returns reported cell viability for input c1cncc([C@@H]2CCCCN2)c1
0.952

I have this compound here, C[C@@H]1CC[C@H]2[C@@H](C)C(=O)O[C@@H]3O[C@@]4(C)CC[C@@H]1[C@]32OO4 , and I need its recorded cell viability.
1.09

----------
Catalogue of cell viability readings, one per entry.
Test system: SW480
Test: cell viability (CellTiter-Glo) relative to plate median (fraction of plate median); higher = more viable cells
Measurement setup: 5 µM; treatment time 24 h; reporter: 7TFP
Respond using a number only.

Solved cases (4 shown):
CC[C@@H](C(=O)[C@@H](C)[C@@H](O)[C@H](C)[C@@H]1O[C@@H]([C@@H](CC)C(=O)O)CC[C@@H]1C)[C@H]1O[C@]2(C=C[C@@H](O)[C@]3(CC[C@@](C)([C@H]4CC[C@](O)(CC)[C@H](C)O4)O3)O2)[C@H](C)C[C@@H]1C :: 1.07
CC(C)Nc1nc(Cl)nc(NC(C)C)n1 :: 0.949
C=CCSSCC=C :: 1.05
Cc1cc(O)cc2oc(=O)c3c(O)cc(O)cc3c12 :: 1.01

For the compound shown here, CCCCC[C@H](O)c1c(O)cc2c(c1O)C(=O)c1c(O)cc(O)cc1C2=O [Averantin] , give the reported cell viability.
0.994

Look up cell viability: C[C@]12CC[C@H](O)CC1=CC[C@@H]1[C@@H]2CC[C@]2(C)C(=O)CC[C@@H]12
1.02

Recorded cell viability for Cc1ccc(/N=C/N(C)/C=N/c2ccc(C)cc2C)c(C)c1 , please?
0.975

Fill blank: measured cell viability of the compound C[C@@H]1C(=O)O[C@H]2[C@H]1CC[C@@]1(C)C=CC(=O)[C@@]3(C)O[C@@]213 [EPOXY (4,5alpha)-4,5-DIHYDROSANTONIN] is ____.
1

----------
System: DLD1
Test: TCF/Wnt firefly luciferase reporter signal relative to plate median (fraction of plate median); higher = higher Wnt reporter signal
Measurement setup: 5 µM; treatment time 24 h; reporter: 7TFP
Outcome measure: TCF/Wnt firefly luciferase reporter signal
No unit in the answer, please; the number alone is enough.

Recorded results for 4 compounds are shown here.
O[C@@H]1C[C@H]2CCC[C@@H](C1)N2Cc1ccccc1 :: 1.1
COC(=O)NC(=S)Nc1ccccc1NC(=S)NC(=O)OC :: 1.17
O=C1C[C@@H]2OCC=C3CN4CC[C@]56c7ccccc7N1[C@H]5[C@H]2[C@H]3C[C@H]46 :: 0.927
CCC12C=CCN3CC[C@@]4(c5ccc(OC)cc5N(C)[C@H]4[C@@](O)(C(=O)OC)[C@@H]1OC(C)=O)[C@@H]32 (stereo not given in full) :: 0.857

Here is the next item to consider.
Using the record for C=C(C)[C@H]1CN[C@H](C(=O)O)[C@H]1CC(=O)O , report its TCF/Wnt firefly luciferase reporter signal.
0.923

----------
System: HCT116
Test: cell viability (CellTiter-Glo) relative to plate median (fraction of plate median); higher = more viable cells
Measurement setup: 5 µM; treatment time 24 h; reporter: TCF4/Wnt
// map cell viability to label using bottom end (below 0.9), midrange (0.9 to below 1), top end (1 or more)

O=[N+]([O-])c1cc(O)c(O)c([N+](=O)[O-])c1 :: midrange
CC1=CC(=O)c2c(O)cccc2C1=O :: bottom end
CC(C)(C)NCC(O)c1ccccc1Cl (stereo unspecified) :: top end
Cl[C@H]1[C@H](Cl)[C@@H](Cl)[C@@H](Cl)[C@H](Cl)[C@H]1Cl :: top end
CN1CCc2cc3c(cc2[C@H]1[C@@H]1OC(=O)c2c1ccc1c2OCO1)OCO3 :: top end

Class label required: CC(C)=CCC[C@@H](C(=O)O)[C@H]1CC[C@@]2(C)C3=C(CC[C@]12C)[C@@]1(C)CC[C@H](O)C(C)(C)[C@@H]1CC3
top end

Consider C/C(=C\c1csc(C)n1)[C@@H]1C[C@@H]2O[C@@H]2CCC[C@H](C)[C@H](O)[C@@H](C)C(=O)C(C)(C)[C@@H](O)CC(=O)O1 . To which cell viability class does it belong?
bottom end

----------
Test system: SW480
Test: TCF/Wnt firefly luciferase reporter signal relative to plate median (fraction of plate median); higher = higher Wnt reporter signal
Measurement setup: 5 µM; treatment time 24 h; reporter: 7TFP
Outcome measure: TCF/Wnt firefly luciferase reporter signal

Observe how each entry below is paired with its result.
O=C([O-])Cc1ccccc1.[Na+] :: 0.896
CC(C)=CCCC1(C)C=Cc2c(O)c3c(c(CC=C(C)C)c2O1)OC12C(=CC4CC1C(C)(C)OC2(C/C=C(/C)C(=O)O)C4O)C3=O (configuration not stated) :: 0.921

Find TCF/Wnt firefly luciferase reporter signal (SW480) for the entry Cc1cc2c(C(C)C)c(O)c(O)c(C=O)c2c(O)c1-c1c(C)cc2c(C(C)C)c(O)c(O)c(C=O)c2c1O
1.04

Test system SW480; read-out TCF/Wnt firefly luciferase reporter signal; what value for CNC(=O)Oc1ccc2c(c1)[C@]1(C)CCN(C)[C@@H]1N2C ?
0.989

----------
cell viability by entry:
Test system: SW480
Test: cell viability (CellTiter-Glo) relative to plate median (fraction of plate median); higher = more viable cells
Measurement setup: 5 µM; treatment time 24 h; reporter: 7TFP

Below: 5 compounds and their reported cell viability.
COc1cccc2c1cc([N+](=O)[O-])c1c(C(=O)O)cc3c(c12)OCO3 :: 1.01
C=CCc1ccc(OC)cc1 :: 1.03
O=C(O)c1cccc2nc3ccccc3nc12 :: 1.32
CCN1C[C@]2(OC(=O)c3ccccc3NC(C)=O)CC[C@H](OC)[C@@]34[C@@H]2C[C@@H]([C@@H]13)[C@@]1(O)C[C@H](OC)[C@H]2C[C@@H]4[C@]1(O)[C@H]2OC :: 0.997
CC(Cc1ccc(O)cc1)NCC(O)c1cc(O)cc(O)c1 (stereo not given) :: 0.967

// query cell viability value for entry CO[C@]12C[C@@H](COC(=O)c3cncc(Br)c3)CN(C)[C@@H]1Cc1cn(C)c3cccc2c13
0.999

State the recorded cell viability for this entry: CCOP(=S)(OCC)Oc1ccc2c(C)c(Cl)c(=O)oc2c1
0.933

Fill blank: measured cell viability of the compound CC(=O)O[C@H]1CC[C@@]2(C)C(=CC[C@@H]3[C@@H]2CC[C@]2(C)C(=O)CC[C@@H]32)C1 is ____.
0.983

Any idea what its cell viability is? The compound is C#C[C@]1(O)CC[C@H]2[C@@H]3CCC4=CC(=O)CC[C@]4(C)[C@H]3CC[C@@]21C
0.962

Endpoint output: cell viability of C=C1C[C@@H]2[C@H](CC[C@]3(C)C(=O)CC[C@@H]23)[C@@]2(C)C=CC(=O)C=C12 . Value?
1.02

Please look up its cell viability: Oc1cc(Cl)ccc1Oc1ccc(Cl)cc1Cl
0.954

Would you kindly share the measured cell viability for CC(=O)OC1CCC23C(=O)OC45CCC(C6=CC(=O)OC6)C4(C)CCC2C5CCC3(O)C1 (stereo not given) ?
0.718

Value lookup for cell viability; key = CC1(C)C(=O)C=C[C@@]2(C)C1=C(O)C(=O)[C@]1(C)[C@@H]2CC[C@@]2(C)[C@H](c3ccoc3)C[C@H]3O[C@]321
0.91

Recorded cell viability of C[C@@H]1O[C@@H](O[C@H]2CC[C@]3(C=O)[C@H]4CC[C@]5(C)[C@@H](C6=CC(=O)OC6)CC[C@]5(O)[C@@H]4CC[C@]3(O)C2)[C@H](O)[C@H](O)[C@H]1O , please.
0.913

----------
Test system: SW480
Test: TCF/Wnt firefly luciferase reporter signal relative to plate median (fraction of plate median); higher = higher Wnt reporter signal
Measurement setup: 5 µM; treatment time 24 h; reporter: 7TFP
Outcome measure: TCF/Wnt firefly luciferase reporter signal
Field format: numeric only.

Sample answers from the record:
CCC12C=CCN3CC[C@@]4(c5ccc(OC)cc5N(C)[C@H]4[C@@](O)(C(=O)OC)[C@@H]1OC(C)=O)[C@@H]32 (stereo partly specified) :: 0.821
O=C1C=C2C(=CCOC2O)O1 (stereo unspecified) :: 0.499
O=c1[nH]c2ccccc2n1CCCN1CCC(n2c(=O)[nH]c3cc(Cl)ccc32)CC1 :: 0.814
CC(=O)[O][Hg][c]1ccccc1 :: 0.0222
COc1cc([C@@H]2c3cc4c(cc3[C@H](OC(C)=O)[C@H]3COC(=O)[C@@H]23)OCO4)cc(OC)c1OC :: 0.867

Fill in: TCF/Wnt firefly luciferase reporter signal of CNC(C)C(O)c1ccccc1 (stereo unspecified) is ___
0.905

Could you share which TCF/Wnt firefly luciferase reporter signal value was measured for O=C1NC(=O)C(=O)C(=O)N1 ?
0.901

TCF/Wnt firefly luciferase reporter signal lookup needed for CC(C)(C#N)O[C@@H]1O[C@H](CO)[C@@H](O)[C@H](O)[C@H]1O , thanks.
0.933

# lookup: TCF/Wnt firefly luciferase reporter signal of CC(=O)OCC1=C(C(=O)O)N2C(=O)[C@@H](NC(=O)CCC[C@@H](N)C(=O)O)[C@H]2SC1
1.09

Fill blank: measured TCF/Wnt firefly luciferase reporter signal of the molecule FC(F)(F)c1cccc(N2CCNCC2)c1 is ____.
1.02

Looking for the measured TCF/Wnt firefly luciferase reporter signal of CC[C@@]1(O)C(=O)OCc2c1cc1n(c2=O)Cc2cc3ccccc3nc2-1 , can you help?
0.911
